The reported numbers originate from ChEMBL document CHEMBL1127771.

# MEASURED ON: Endothelin-1 receptor (Rattus norvegicus, UniProt P26684)
# Sequence (P26684 whole entry): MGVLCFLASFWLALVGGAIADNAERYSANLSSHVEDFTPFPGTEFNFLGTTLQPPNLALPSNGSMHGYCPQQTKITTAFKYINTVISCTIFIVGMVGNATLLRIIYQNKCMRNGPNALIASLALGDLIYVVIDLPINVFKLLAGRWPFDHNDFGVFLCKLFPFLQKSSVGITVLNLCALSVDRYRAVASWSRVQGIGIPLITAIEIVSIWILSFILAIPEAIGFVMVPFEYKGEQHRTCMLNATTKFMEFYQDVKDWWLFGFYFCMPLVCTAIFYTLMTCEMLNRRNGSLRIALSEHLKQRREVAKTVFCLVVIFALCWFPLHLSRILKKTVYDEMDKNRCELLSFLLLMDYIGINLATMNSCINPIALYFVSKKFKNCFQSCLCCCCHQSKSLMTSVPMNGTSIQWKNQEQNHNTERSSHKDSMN
Where a SMILES comes first, the peptide text is derived from it. Bridges are numbered along the chain shown (N, C = ends). [ ]: non-standard residue; d: D form. Aoc = NCCCCCCCC(=O)O
MEASUREMENT NAME: pIC50
Entry type: numeric. Quantity: pIC50, the -log10 of concentration in molar units.

Q. Record lookup: for Endothelin-1 receptor (Rattus norvegicus, UniProt P26684), what pIC50 belongs to CC[C@H](C)[C@H](NC(=O)[C@H](CC(=O)O)NC(=O)[C@H](CC(C)C)NC(=O)[C@H](Cc1c[nH]cn1)NC(=O)[C@@H]1CSSC[C@H](N)C(=O)N[C@@H](C(C)C)C(=O)N[C@@H](Cc2ccc(O)cc2)C(=O)N[C@@H](Cc2ccccc2)C(=O)N1)C(=O)N[C@H](C(=O)N[C@@H](Cc1c[nH]c2ccccc12)C(=O)O)[C@@H](C)CC (H-CVYFCHLDIIW-OH; disulfide 1-5) ?
A. 5.19

Q. Try this compound next: CC[C@H](C)[C@H](NC(=O)[C@H](CC(=O)O)NC(=O)[C@H](CC(C)C)NC(=O)[C@H](Cc1c[nH]cn1)NC(=O)[C@@H]1CSSC[C@H](N)C(=O)N[C@@H](CO)C(=O)N[C@@H](CO)C(=O)N[C@@H](C(C)C)C(=O)N[C@@H](Cc2ccc(O)cc2)C(=O)N[C@@H](Cc2ccccc2)C(=O)N1)C(=O)N[C@H](C(=O)N[C@@H](Cc1c[nH]c2ccccc12)C(=O)O)[C@@H](C)CC (H-CSSVYFCHLDIIW-OH; disulfide 1-7)
A. 5.74

Q. Try this compound next: CC[C@H](C)[C@H](NC(=O)[C@H](CC(=O)O)NC(=O)[C@H](CC(C)C)NC(=O)[C@H](Cc1cnc[nH]1)NC(=O)[C@@H]1CSSC[C@H](N)C(=O)N[C@@H](CO)C(=O)NCCCCCCCC(=O)N[C@@H](C(C)C)C(=O)N[C@@H](Cc2ccc(O)cc2)C(=O)N[C@@H](Cc2ccccc2)C(=O)N1)C(=O)N[C@H](C(=O)N[C@@H](Cc1c[nH]c2ccccc12)C(=O)O)[C@@H](C)CC (H-CS[Aoc]VYFCHLDIIW-OH; disulfide 1-7)
A. 5.80
